src = PubChem BioAssay AID1259407

# Test system: CCRIS mutagenicity, Ames/micronucleus/aberration tests
# test-details: CCRIS mutagenicity studies
# particulars: Test System: AMES SALMONELLA TYPHIMURIUM; Strain/Indicator: TA1537; Metabolic Activation: NONE; Method: PREINCUBATION
The source made the active and inactive calls. No rule for the calls is given here.
# output must be one of active, inactive

Prompt line: Which result was noted for this compound in the test: C/C=C1\CC2C=CC1C2 (stereo not drawn)
Response line: inactive

Prompt line: One more compound: O=C1c2ccccc2C(=O)c2c(O)c(O)cc(O)c21
Response line: active

Prompt line: One more compound: NNc1ccccc1
Response line: active

Prompt line: One more compound: NCCCN
Response line: inactive

Prompt line: One more compound: Nc1c2ccccc2nc2ccc(O)cc12
Response line: active

Prompt line: One more compound: CCCNC(=O)NS(=O)(=O)c1ccc(Cl)cc1
Response line: inactive

Prompt line: One more compound: O=C1C=C(Nc2ccccc2)C(=O)c2ccccc21
Response line: inactive

Prompt line: One more compound: ClC1(Cl)C2(Cl)C3(Cl)C4(Cl)C(Cl)(Cl)C5(Cl)C3(Cl)C1(Cl)C5(Cl)C24Cl (stereo not drawn)
Response line: inactive

Prompt line: One more compound: ClCC(Cl)Cl
Response line: inactive

Prompt line: One more compound: O=[N+]([O-])c1cccc2cccc([N+](=O)[O-])c12
Response line: active

Prompt line: One more compound: O=Cc1ccc(O)cc1
Response line: inactive

Prompt line: One more compound: Cc1ccc(S(=O)(=O)NC2CCCCC2)cc1
Response line: inactive

Prompt line: One more compound: O=P(O)(O)O
Response line: inactive

Prompt line: One more compound: [O]=[Mo](=[O])=[O]
Response line: inactive

Prompt line: One more compound: CN(C)CCN(Cc1ccc(Cl)s1)c1ccccn1
Response line: inactive

Prompt line: One more compound: CC(=O)CC(=O)Nc1ccc(C)cc1
Response line: inactive

Prompt line: One more compound: NCCNCCNCCNCCN
Response line: inactive

Prompt line: One more compound: CCCC(=O)Nc1ncnc2c1ncn2[C@@H]1O[C@@H]2COP(=O)(O)O[C@H]2[C@H]1OC(=O)CCC
Response line: inactive

Prompt line: One more compound: CC(COC(=O)c1ccccc1)(COC(=O)c1ccccc1)COC(=O)c1ccccc1
Response line: inactive

Prompt line: One more compound: CN(C)CCCN1c2ccccc2Sc2ccc(Cl)cc21
Response line: inactive

Prompt line: One more compound: C#CCNC(=NCCSCc1nc[nH]c1C)NC#N
Response line: inactive

Prompt line: One more compound: COc1cc(OC)c(Cl)c(-n2c(-c3ccccc3)cc(=O)c(C)c2-c2ccc(F)cc2)c1
Response line: inactive

Prompt line: One more compound: O=c1[nH]c(=O)n([C@H]2C[C@H](O)[C@@H](CO)O2)cc1I
Response line: inactive

Prompt line: One more compound: c1ccc(Oc2ccccc2)cc1
Response line: inactive

Prompt line: One more compound: Cc1ccc(N=Nc2c(O)ccc3ccccc23)c([N+](=O)[O-])c1
Response line: inactive

Prompt line: One more compound: Brc1cccc(-c2ccccc2)c1
Response line: inactive

Prompt line: One more compound: OCCNCCO
Response line: inactive

Prompt line: One more compound: O=C(O)C[C@H](O)C[C@H](O)/C=C/c1c(C2CC2)nc2ccccc2c1-c1ccc(F)cc1
Response line: inactive

Prompt line: One more compound: CN(C)C
Response line: inactive

Prompt line: One more compound: Oc1c(Cl)c(Cl)c(Cl)c(Cl)c1Cl
Response line: inactive

Prompt line: One more compound: OCCOCCO
Response line: inactive

Prompt line: One more compound: CC(C)N
Response line: inactive

Prompt line: One more compound: Brc1ccc(-c2ccccc2)cc1
Response line: inactive
